- System: HEK293T
- assay_name: median enrichment of reporter reads in eGFP-reduced (low/intermediate) vs eGFP-high sorted cells (eGFP-extension fusion abundance) (ratio); higher = stronger loss of eGFP-fusion protein abundance (more destabilising extension)
Quick rule for you: median enrichment at 4 or higher means criterion met, lower means criterion not met.

Solved entries (count: 4):
> print(dat)
                           ordered.residues   class.assignment
1                       GLLPVDEVSFL [ABCC5]  criterion not met
2  SPHPAPPPPRPTRRPPDSSPGASSATPSLHPWGPSPPACTEQGLGVSWEA [ITGB4]  criterion not met
3  QICIIQAYLVKQTHIMGLGNIYLSKFAITDLGFFPFFEGKFNYIALLFFPLRDSLLGKCFLRTKI [CHMP5]      criterion met
4  QRHASFTISGKRTHCAYSDCRVYKRQPFGYYCCKVQILQASSDICIYCHYCLWKKQGIKVPVHLMYYFL [NEUROD1]      criterion met

Okay, next one:
// inclusive: median enrichment at least 4? input: SVWGLAPCSPGPHCSHTLRLGPPSLLWC [TOM1]
criterion met

====

The following substances are shown together with reported median enrichment values.
- Test system: HEK293T
- assay_name: median enrichment of reporter reads in eGFP-reduced (low/intermediate) vs eGFP-high sorted cells (eGFP-extension fusion abundance) (ratio); higher = stronger loss of eGFP-fusion protein abundance (more destabilising extension)
Answer as a number with no unit attached.

The following substances have reported results that may help.
> print(dat)
                                  substance  numeric.value
1              RRPRAPHLSRSLMPQGAQ [SLC44A2]           1.11
2  RPGAQPCAAEDSRDWRRPRPATAGARGHLPGLLTLSPHWEWAPRGRASAVAASAPGRAGPPRGPVLVFCRRTQPPPIPDSSLG [TMUB1]           6.53
3  CSDGGWSLSESSALPSPGDEGNSLCFAEKILWINTEAPATPEGWRLLSLPILQSGSKPSKTAPEHCFSWVQS [C3orf52]           13.3
4                 CGPEASWVSLGPQKLIKE [PCP2]          0.292
5              SDQGLGLRVGGLVEHCNPLNK [LRG1]           1.34

Missing value: median enrichment, HEK293T, entry SDYCKPLPLLPCLCLFSPLTYSISQPPPTCLCDLRTVPSRHWDKGRISCSPPESAWCCPLFPLCAYD [PRPF3] . Fill in?
2.87

Missing value: median enrichment, HEK293T, entry NRRRRWRERQR [Degron FEM1C] . Fill in?
21.1

Missing value: median enrichment, HEK293T, entry GGQVAEGSGCRLLYPLCLKHPPHRALVFTRFVLDSLNGNRIPWLRAKTTTYQCPCPFQLTLSSLRSSLSLWKGHPSQGRNAWS [SLC13A5] . Fill in?
8.48

Missing value: median enrichment, HEK293T, entry CFSVNLSLLVERSGACPSSQTSDL [LRRC46] . Fill in?
5.72

Missing value: median enrichment, HEK293T, entry RRRRRRR [Arg07] . Fill in?
0.889

====

The following substances are shown together with reported median enrichment values.
- Test system: HEK293T;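 also: lentiviral eGFP-IRES-mCherry reporter pool sorted by FACS 96 h post-transduction, gated on mCherry-high cells, Illumina read counts normalized per million, median across four biological replicates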
- assay_name: median enrichment of reporter reads in eGFP-reduced (low/intermediate) vs eGFP-high sorted cells (eGFP-extension fusion abundance) (ratio); higher = stronger loss of eGFP-fusion protein abundance (more destabilising extension)

The following substances have reported results that may help.
> print(dat)
                                  substance  quantity.measured  result
1                         LLLLLLLLL [Leu09]  median enrichment    11.2
2      GIIIISTCPQFLSQSPSILTCTHSDAD [TCHHL1]  median enrichment    3.49
3  WAWTLEKEARSQPLAGQGRRPQEPSPPLLCVGTGGPWPVPGHSGQGPRDISTRSWRAVRIHSACPALAGQRQGRTFGKTKTVG [TCF15]  median enrichment    5.34
4  SITLILWKSEQAVAVFHSSSCCVQLLPSQPFNKIILKCYPSALPFNGKMKGSDNTGGPNFVPVLCVPYLSVPVYRLCKSLV [RABL3]  median enrichment    6.24
5                      YNPFALMSLPFVT [SIX2]  median enrichment    1.36
6  HLPIPASLARALLGPEQRRTCPTHTAIYSSRHRAPLPYSWSQQPGNGVALHWPLASTLSGAPAVGWGTPAKDQFGCLIPGAVT [CRHR2]  median enrichment    3.84

Endpoint output: median enrichment of AAAAAAAA [Ala08] . Value?
7.64

Endpoint output: median enrichment of QSSYPLEEDCFQII [KDSR] . Value?
0.764

Endpoint output: median enrichment of RARCPSPS [PTH2] . Value?
2.74

Endpoint output: median enrichment of WLYLRFEAGKPDR [UGT2B10] . Value?
6.76

Endpoint output: median enrichment of WRQRGGKETWLSLIICIQITVL [ATXN1] . Value?
8.6

Endpoint output: median enrichment of SGTVGCVGVGIPLAPASPTLALQLGPRGISVLLSQGRSPAGDGGRGSSILPRVCLGVCEQVCKTPEAEAILPPRSLEGVCAWA [ZSWIM4] . Value?
5.27

Endpoint output: median enrichment of VVVVVV [Val06] . Value?
5.06

Endpoint output: median enrichment of RSGLRRRRHRGE [Degron APPBP2] . Value?
6.28

Endpoint output: median enrichment of EATKRPGFSSCCHQLALWPRARCLPFMFPHLQSELVVPDDLRSHDLLTCPMILYFVGRSIKQLLLLLCANHSCNFCSAYLPLF [ADAMTSL1] . Value?
5

Endpoint output: median enrichment of LVSLPLVSAWQPPPPTYHPSPITQVNVTNLPCLHINLYIFGCSPYLMAVIIYRYVYPCYLVVSFSRGGTVFYSSLCPLFLSSV [PGLYRP4] . Value?
2.37

Endpoint output: median enrichment of REEWGRLRSCGPRPRSLRGCLGDHLDLEAESAILPD [DHRS2] . Value?
2.36
